# EXPERIMENTAL PROTOCOL: gradient 5% acetonitrile 3 min, to 50% in 2 min, to 85% in 15 min, held 3 min, 100 µL/min
# CONDITIONS: column: Zorbax Extend-C18 2.1 x 50 mm; eluents: water / acetonitrile, 0.1% formic acid
MEASUREMENT KIND: RP-LC retention time (s)
Numbers only; they are read as s.

Here are 8 molecules together with their reported answers.
molecule=Cc1ccccc1CNS(=O)(=O)c1cc(-c2[nH]ncc2C(=O)N(C)C)oc1C measurement_kind="RP-LC retention time" unit_abbrev=s numeric_readout=701
molecule=CCOC(=O)C1CCN([C@H]2CS(=O)(=O)C[C@@H]2S(=O)(=O)c2ccc(F)cc2)CC1 measurement_kind="RP-LC retention time" unit_abbrev=s numeric_readout=889
molecule="OC(COc1ccc(F)cc1)CN1CCN(c2cccc(Cl)c2)CC1 (stereo not drawn)" measurement_kind="RP-LC retention time" unit_abbrev=s numeric_readout=734
molecule="O=C(NC1CCCCCC1)C1CCCN(c2ncnc3c2oc2ccccc23)C1 (stereo not drawn)" measurement_kind="RP-LC retention time" unit_abbrev=s numeric_readout=815
molecule=CN(C)CCCNC(=O)C1CCN(c2nc3ccc(-c4cccc(F)c4)nc3s2)CC1 measurement_kind="RP-LC retention time" unit_abbrev=s numeric_readout=691
molecule=O=C(COc1ccc(Cl)cc1)N1CCN(c2cc(-c3ccccc3)[nH]n2)CC1 measurement_kind="RP-LC retention time" unit_abbrev=s numeric_readout=814
molecule="O=C(NCCc1cccs1)C1CCCN(C(=O)c2cc(-c3ccccn3)n[nH]2)C1 (stereo not drawn)" measurement_kind="RP-LC retention time" unit_abbrev=s numeric_readout=645
molecule=O=C(CSc1ccc(NC(=O)c2ccco2)cc1)Nc1nc(-c2ccccc2)cs1 measurement_kind="RP-LC retention time" unit_abbrev=s numeric_readout=966

What the record says about CN(C)C(=O)c1cn(C2CN(C(=O)CCc3c[nH]c4ccccc34)C2)nn1 : RP-LC retention time is 652

RP-LC retention time measured on COc1ccccc1CNS(=O)(=O)c1cc(-c2[nH]ncc2C(=O)N(C)C)oc1C = 666

The reported value for O=C(CN1C(=O)C(C(=O)N2CCCC2)Sc2ccccc21)Nc1ccc(F)cc1 (stereo not drawn) in terms of RP-LC retention time is 978

Entry under test: CCc1nc2cc3c(cc2n1CC(=O)N1C(C)CCCC1C)OCCO3 (stereo not drawn) . Its RP-LC retention time was 668

The recorded RP-LC retention time for COC[C@@H]1[C@H](C(=O)NCCC(C)C)CCC(=O)N1C is 643

RP-LC retention time reported for this molecule O=C(NCc1ccc(F)cc1)Nc1cccn2ncnc12 : 718

The recorded RP-LC retention time for CCOC(=O)c1sc(NC(=O)COc2ccccc2Br)nc1C is 1050

Per the record, CCc1ccc(CNC(=O)c2ccc3c(c2)N(C)C(=O)C2CCCCN32)cc1 (stereo not drawn) has RP-LC retention time of 663

Form field RP-LC retention time, entry O=C(C1CCN(S(=O)(=O)N2CCOCC2)CC1)N1CCCC(c2nc(C3CCOCC3)no2)C1 (stereo not drawn) : 700

Field RP-LC retention time (entry CC(C)Cn1cc(CCNC(=O)c2cncc(Br)c2)c2cccnc21 ) reads 796

Per the record, CC(=O)c1ccc(Nc2c(C(=O)OC(C)C)cnc3nc(C)ccc23)cc1 has RP-LC retention time of 616

Reference source: the METLIN SMRT retention time set (Domingo-Almenara et al. 2019)
